target: SARS-CoV-2 Spike Protein (RBD)(R319-F541).mFc (SARS-CoV-2); test: Luminex, supernatant
Listed binders paired with reported MFI
Write the value in MFI as a bare number.

Some solved entries appear below for comparison.
INSERT INTO results (binder, measured_parameter, reading) VALUES
  ('mAb10954 (antibody, V domains shown) VH: EVQLVESGGGLVQPGGSLRLSCAASGITVSSNYMSWVRQAPGKGLEWVSLIYSGGSTYYADSVKGRFTISRDNSKNTLYLQMNSLRVEDTAVYYCARDHGMAAAGYNYWGQGTLVTVSS VL: DIQMTQSPSSLSASVGDRVTITCQASQDINKYLNWYQQKPGKAPKLLIYDASNLETGVPSRFSGSGSGTDFTFTINSLQPEDFATYFCQQYDNLPPAFGQGTKVEIKR', 'MFI', 31300),
  ('mAb10957 (antibody, V domains shown) VH: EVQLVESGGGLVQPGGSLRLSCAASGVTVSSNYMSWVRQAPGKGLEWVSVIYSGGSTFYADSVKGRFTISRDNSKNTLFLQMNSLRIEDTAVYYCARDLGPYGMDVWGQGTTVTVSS VL: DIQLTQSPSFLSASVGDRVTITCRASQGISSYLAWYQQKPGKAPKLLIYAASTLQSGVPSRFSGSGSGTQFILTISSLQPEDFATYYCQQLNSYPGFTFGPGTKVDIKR', 'MFI', 18700),
  ('mAb10913 (antibody, V domains shown) VH: EVQLVESGGGLVQPGGSLRLSCAASGFTFRNYEMNWVRQAPGKGLEWVSYITSSGSTMYYADSVKGRFTISRDNAKNSLYLQMNSLRAEDTAVYYCARDGFYYYYAMDVWGQGTTVTVSS VL: QSVLTQPPSVSAAPGQKVTISCSGSSSNIGNNYVSWYQQLPGTAPKLLIYDNNKRPSGIPDRFSGSKSGTSATLGITGLQTGDEADYYCGTWDSSLSVGRVFGTGTKVTVLG', 'MFI', 33000),
  ('mAb10939 (antibody, V domains shown) VH: EVQLVESGGGLVQPGGSLRLSCAASGLTVSSNYMNWVRQVPGKGLEWVSVIYSGGSKFYVDSVKGRFTISRHNSKNTLYLQMNSLRPEDTAVYYCTRDAQYYGMDVWGQGTTVTVSS VL: DIQMTQSPSSLSASVGDRVTITCRASQSISTYLHWYQQKPGEAPKLLIYAASSLQSGVPSRFSGSGSGTDFTLTISSLQPEDFATYYCQQSYSTPPEIFGQGTKLEIKR', 'MFI', 33900);

Query string: Endpoint output: MFI of mAb10935 (antibody, V domains shown) VH: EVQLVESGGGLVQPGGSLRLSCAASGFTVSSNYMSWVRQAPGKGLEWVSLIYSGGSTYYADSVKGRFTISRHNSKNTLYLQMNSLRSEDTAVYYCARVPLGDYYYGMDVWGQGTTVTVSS VL: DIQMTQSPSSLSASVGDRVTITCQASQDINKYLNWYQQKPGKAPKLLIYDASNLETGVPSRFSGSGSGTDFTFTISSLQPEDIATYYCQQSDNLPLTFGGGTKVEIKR . Value?
Result string: 35900
